# tested_system: human noradrenaline transporter (hNET) (Homo sapiens)
# Construct: expressed in transfected cells; host or cells: COS-7 cells (ATCC), transient transfection with metafectene
# Sequence (P23975 whole entry): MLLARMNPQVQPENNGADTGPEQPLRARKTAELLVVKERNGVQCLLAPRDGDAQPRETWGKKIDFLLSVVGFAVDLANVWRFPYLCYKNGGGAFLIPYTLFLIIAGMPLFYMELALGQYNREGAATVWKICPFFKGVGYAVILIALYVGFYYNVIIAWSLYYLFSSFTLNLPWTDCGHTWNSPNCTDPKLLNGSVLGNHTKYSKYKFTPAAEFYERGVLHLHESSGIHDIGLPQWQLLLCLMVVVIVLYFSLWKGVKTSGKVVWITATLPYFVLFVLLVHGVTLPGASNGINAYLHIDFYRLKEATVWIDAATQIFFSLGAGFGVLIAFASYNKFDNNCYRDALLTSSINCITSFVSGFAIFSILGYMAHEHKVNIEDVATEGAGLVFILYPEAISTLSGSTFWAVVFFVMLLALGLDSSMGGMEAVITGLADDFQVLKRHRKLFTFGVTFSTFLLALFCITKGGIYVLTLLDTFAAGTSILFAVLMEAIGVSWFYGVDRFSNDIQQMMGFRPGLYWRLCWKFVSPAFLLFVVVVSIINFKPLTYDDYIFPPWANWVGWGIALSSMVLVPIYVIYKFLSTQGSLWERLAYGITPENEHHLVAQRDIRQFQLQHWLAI
# procedure_text: biochemical
# Format: binding
# condition_summary: Av IC50 Displacement of 3H-nisoxetine from hNET
Residues, ends and D or L forms follow the SMILES beside them.
Recorded IC50 values for a group of compounds are listed next.
observed_property: IC50 (nM)

1) CC(C)C[C@@H]1NC(=O)[C@H](CCCCN)NC(=O)[C@H](Cc2ccc(O)cc2)NC(=O)CNC(=O)[C@@H]2CSSC[C@H](NC1=O)C(=O)N[C@@H](CCCNC(=N)N)C(=O)N1CCC[C@H]1C(=O)N[C@H](C(N)=O)CSSC[C@H](NC(=O)[C@@H](NC(=O)CNC(=O)[C@H](CC(N)=O)NC(=O)[C@@H](N)Cc1ccc(O)cc1)C(C)C)C(=O)N2 [compound 84]: 302
2) CC(C)C[C@@H]1NC(=O)[C@H](C)NC(=O)[C@H](Cc2ccc(O)cc2)NC(=O)CNC(=O)[C@@H]2CSSC[C@H](NC1=O)C(=O)N[C@@H](Cc1c[nH]cn1)C(=O)N1CCC[C@H]1C(=O)N[C@H](C(N)=O)CSSC[C@H](NC(=O)[C@@H](NC(=O)CNC(=O)[C@@H](N)CC(N)=O)C(C)C)C(=O)N2: 10700
3) CC(C)C[C@@H]1NC(=O)[C@H](CCCCN)NC(=O)[C@H](Cc2ccc(O)cc2)NC(=O)CNC(=O)[C@@H]2CSSC[C@H](NC1=O)C(=O)N[C@@H](CCCNC(=N)N)C(=O)N1CCC[C@H]1C(=O)N[C@H](C(N)=O)CSSC[C@H](NC(=O)[C@@H](NC(=O)CNC(=O)[C@H](CC(N)=O)NC(=O)[C@@H](N)Cc1c[nH]c3ccccc13)C(C)C)C(=O)N2: 178
4) CC(C)C[C@@H]1NC(=O)[C@H](CCCCN)NC(=O)[C@H](Cc2ccc(O)cc2)NC(=O)CNC(=O)[C@@H]2CSSC[C@H](NC1=O)C(=O)N[C@@H](Cc1c[nH]cn1)C(=O)N1CCC[C@H]1C(=O)N[C@H](C(N)=O)CSSC[C@H](NC(=O)[C@@H](NC(=O)[C@H](CCCCN)NC(=O)[C@@H](N)CC(N)=O)C(C)C)C(=O)N2 [compound 122] (HELM PEPTIDE1{N.K.V.C.C.G.Y.K.L.C.H.P.C.[am]}$PEPTIDE1,PEPTIDE1,4:R3-13:R3|PEPTIDE1,PEPTIDE1,5:R3-10:R3$$$V2.0): 1320
5) CC(C)C[C@@H]1NC(=O)[C@H](CCCCN)NC(=O)[C@H](Cc2ccc(O)cc2)NC(=O)CNC(=O)[C@@H]2CSSC[C@H](NC1=O)C(=O)N[C@@H](Cc1c[nH]c3ccccc13)C(=O)N1CCC[C@H]1C(=O)N[C@H](C(N)=O)CSSC[C@H](NC(=O)[C@@H](NC(=O)CNC(=O)[C@H](CC(N)=O)NC(=O)[C@@H](N)Cc1ccc(O)cc1)C(C)C)C(=O)N2: 389
6) CC(C)C[C@@H]1NC(=O)[C@H](CCCCN)NC(=O)[C@H](Cc2ccc(O)cc2)NC(=O)CNC(=O)[C@@H]2CSSC[C@H](NC1=O)C(=O)N[C@@H](Cc1c[nH]cn1)C(=O)N[C@@H](Cc1ccc(O)cc1)C(=O)N[C@H](C(N)=O)CSSC[C@H](NC(=O)[C@@H](NC(=O)CNC(=O)[C@@H](N)CC(N)=O)C(C)C)C(=O)N2: 7080
7) CC(C)C[C@H](NC(=O)CNC(=O)[C@H](CCCNC(=N)N)NC(=O)[C@@H](N)Cc1c[nH]c2ccccc12)C(=O)N[C@H]1CSSC[C@@H](C(N)=O)NC(=O)[C@H](C)NC(=O)[C@H](CCCNC(=N)N)NC(=O)[C@@H]2CSSC[C@H](NC1=O)C(=O)NCC(=O)N[C@@H](Cc1ccc(O)cc1)C(=O)N[C@@H](CCCCN)C(=O)N[C@@H](CC(C)C)C(=O)N2: 275
8) CC(C)C[C@@H]1NC(=O)[C@H](CCCCN)NC(=O)[C@H](Cc2ccc(O)cc2)NC(=O)CNC(=O)[C@@H]2CSSC[C@H](NC1=O)C(=O)N[C@@H](Cc1c[nH]c3ccccc13)C(=O)N1CCC[C@H]1C(=O)N[C@H](C(N)=O)CSSC[C@H](NC(=O)[C@@H](NC(=O)[C@H](CC(=O)O)NC(=O)[C@H](CCCCN)NC(=O)[C@@H](N)Cc1c[nH]c3ccccc13)C(C)C)C(=O)N2 [compound 92] (HELM PEPTIDE1{W.K.D.V.C.C.G.Y.K.L.C.W.P.C.[am]}$PEPTIDE1,PEPTIDE1,5:R3-14:R3|PEPTIDE1,PEPTIDE1,6:R3-11:R3$$$V2.0): 407
9) CC(C)C[C@@H]1NC(=O)[C@H](CCCCN)NC(=O)[C@H](Cc2ccc(O)cc2)NC(=O)CNC(=O)[C@@H]2CSSC[C@H](NC1=O)C(=O)N[C@@H](Cc1c[nH]cn1)C(=O)N1CCC[C@H]1C(=O)N[C@H](C(N)=O)CSSC[C@H](NC(=O)[C@@H](NC(=O)CNC(=O)[C@H](CC(N)=O)NC(=O)[C@@H](N)Cc1c[nH]c3ccccc13)C(C)C)C(=O)N2: 295
10) CC(C)C[C@@H]1NC(=O)[C@H](CCCCN)NC(=O)[C@H](Cc2ccc(O)cc2)NC(=O)CNC(=O)[C@@H]2CSSC[C@H](NC1=O)C(=O)N[C@@H](Cc1c[nH]cn1)C(=O)N1CCC[C@H]1C(=O)N[C@H](C(N)=O)CSSC[C@H](NC(=O)[C@@H](NC(=O)CNC(=O)[C@@H](N)CCCNC(=N)N)C(C)C)C(=O)N2: 513

Data origin, for the record: patent US7507717B2
